molecular target: human TLR8 (Homo sapiens (Human), UniProt Q9NR97); assay: TLR8 inhibition reporter assay (HEK-Blue cells, SEAP reporter, R848 stimulation); conditions: read-out: TLR8 IC50, HEK-Blue cells overexpressing human TLR8, R848 15.9 μM;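 note: compounds tested from 0.05 nM to 50 µM, 22 h at 37 °C, SEAP measured with HEK-Blue Detection, inhibition relative to agonist plus DMSO versus a known inhibitor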
Sequence (Q9NR97 27-1041): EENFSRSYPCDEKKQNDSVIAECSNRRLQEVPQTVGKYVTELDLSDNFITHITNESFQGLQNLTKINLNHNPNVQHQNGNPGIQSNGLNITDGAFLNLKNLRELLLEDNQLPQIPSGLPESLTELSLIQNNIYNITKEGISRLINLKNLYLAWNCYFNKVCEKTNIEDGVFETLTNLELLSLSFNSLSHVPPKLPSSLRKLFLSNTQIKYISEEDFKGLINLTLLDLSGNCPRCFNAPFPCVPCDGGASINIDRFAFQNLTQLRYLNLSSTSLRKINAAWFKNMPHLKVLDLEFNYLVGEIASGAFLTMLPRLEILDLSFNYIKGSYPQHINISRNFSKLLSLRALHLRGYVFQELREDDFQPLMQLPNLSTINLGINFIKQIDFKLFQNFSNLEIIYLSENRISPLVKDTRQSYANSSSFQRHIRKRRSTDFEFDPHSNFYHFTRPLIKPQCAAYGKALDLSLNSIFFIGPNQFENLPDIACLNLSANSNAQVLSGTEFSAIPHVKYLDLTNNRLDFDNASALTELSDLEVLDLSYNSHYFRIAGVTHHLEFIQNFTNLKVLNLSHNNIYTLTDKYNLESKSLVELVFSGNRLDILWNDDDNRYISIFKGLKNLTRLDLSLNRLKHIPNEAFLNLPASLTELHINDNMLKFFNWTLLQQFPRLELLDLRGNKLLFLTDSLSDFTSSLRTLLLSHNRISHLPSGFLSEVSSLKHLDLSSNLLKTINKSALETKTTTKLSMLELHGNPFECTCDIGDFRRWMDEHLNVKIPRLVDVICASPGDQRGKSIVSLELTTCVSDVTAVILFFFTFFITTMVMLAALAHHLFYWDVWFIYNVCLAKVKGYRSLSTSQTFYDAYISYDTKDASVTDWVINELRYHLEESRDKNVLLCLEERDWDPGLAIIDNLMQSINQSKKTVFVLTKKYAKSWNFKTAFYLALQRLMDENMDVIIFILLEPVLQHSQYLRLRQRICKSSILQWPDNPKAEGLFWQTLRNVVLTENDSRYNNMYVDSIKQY
readout type: IC50 (nM)

Some compounds with recorded IC50:
{"compound": "Cc1cc(-c2[nH]c3ccc(C4CCN(C5COC5)CC4)cc3c2C(C)C)c(F)cn1", "readout type": "IC50", "measured result": 7.4}
{"compound": "CCN1CCC(N2CCC(c3ccc4[nH]c(-c5ccnc(OC)c5)c(C(C)C)c4c3)CC2)CC1", "readout type": "IC50", "measured result": 218}
{"compound": "Cc1cc(-c2[nH]c3ccc(C4CCN(CC(=O)NCC(F)(F)F)CC4)cc3c2C(C)C)cc(C)n1", "readout type": "IC50", "measured result": 12.8}
{"compound": "CCOCCN1CCC(c2ccc3[nH]c(-c4ccnc(C)c4)c(C(C)C)c3c2)CC1", "readout type": "IC50", "measured result": 16.7}

P. Cc1cc(-c2[nH]c3ccc(C4CCNCC4)cc3c2C(C)C)c(C(N)=O)cn1
Q. COc1cc(-c2[nH]c3ccc(C4CCN(C5CCN(C(C)C)CC5)CC4)cc3c2C(C)C)ccn1
Data request: Could you check which of P and Q has a smaller value for IC50? Label of pick, please.
Data returned: Q

A. Cc1cc(-c2[nH]c3ccc(C4CCN(C(=O)CNCC5CC5)CC4)cc3c2C(C)C)cc(C)n1
B. Cc1cc(-c2[nH]c3ccc(C4CCN(C(=O)CN5CCC(F)(F)CC5)CC4)cc3c2C(C)C)cc(C)n1
C. Cc1cc(-c2[nH]c3ccc(C4CCN(C(=O)Cn5cncn5)CC4)cc3c2C(C)C)cc(C)n1
Data request: Falling order of IC50, please. Use the labels to give the ranking in the order requested.
Data returned: C, B, A
(C: 206 nM, B: 55.1 nM, A: 13.3 nM)

Where do these numbers come from? They come from patent US10660877B2.
